Please provide measured % MFI increase at indicated time point (h): 2 for the entries that follow.
Tested on: peptide/HLA-A*0201 complex
Assay: Peptide/HLA-A*0201 complex stability on T2 cells
Format: binding, human
Details: as at 0 h, then 2 h at 37°C after Brefeldin A
Give bare numbers, in %.

Example cases with answers are listed next.
ALPTTISFT [Peptide P4] ... 48.73
FLWGPRALA [Peptide P3] ... 230.85
ALLEEEEGV [Peptide P2] ... 84.13

Moving on to another sequence below.
// query Data request, read-out % MFI increase at indicated time point (h): 2, for KVLEHVVRV [Peptide P1]
// result 95.74

----------
Tested on: peptide/HLA-A*0201 complex
Assay: Peptide/HLA-A*0201 complex stability on T2 cells
Format: binding, human
Conditions: T2 cells, 100 μM peptide overnight, 100 ng/mL human β2m, 37°C, Brefeldin A 10 μg/mL 1 h, then 0 h at 37°C; anti-HLA-A2 mAb staining
I'd appreciate it if you could supply % MFI increase at indicated time point (h): 0 values for the items below.
Give bare numbers, in %.

ALPTTISFT [Peptide P4] ... 98.80
FLWGPRALA [Peptide P3] ... 285.66
ALLEEEEGV [Peptide P2] ... 170.07

// query Entry KVLEHVVRV [Peptide P1] has what % MFI increase at indicated time point (h): 0?
// result 126.16

Just for reference, paper PMC3042617 is where these values come from.
